These entries and their values trace back to ChEMBL document CHEMBL1149547.

tested system: Purine nucleoside phosphorylase (Bos taurus, UniProt P55859)
Sequence (P55859 whole entry): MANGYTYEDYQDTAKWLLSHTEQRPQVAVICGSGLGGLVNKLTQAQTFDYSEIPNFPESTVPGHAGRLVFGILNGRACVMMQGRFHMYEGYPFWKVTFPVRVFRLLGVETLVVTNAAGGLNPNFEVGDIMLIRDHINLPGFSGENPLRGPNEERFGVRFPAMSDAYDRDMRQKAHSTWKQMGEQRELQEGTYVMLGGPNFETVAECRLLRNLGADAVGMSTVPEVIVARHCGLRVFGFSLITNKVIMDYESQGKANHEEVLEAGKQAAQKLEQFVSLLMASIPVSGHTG
method: Inhibition of calf PNP in presence of 1 mM phosphate
setup conditions: read-out: Ki app
pKi: −log10 of the molar value.
endpoint name: pKi

chemical structure: Nc1nc2c(CCCCCC(F)(F)P(=O)(O)O)c[nH]c2c(=O)[nH]1
experimental value: 8.24

---

tested system: Purine nucleoside phosphorylase (Homo sapiens, UniProt P00491)
Sequence (P00491 whole entry): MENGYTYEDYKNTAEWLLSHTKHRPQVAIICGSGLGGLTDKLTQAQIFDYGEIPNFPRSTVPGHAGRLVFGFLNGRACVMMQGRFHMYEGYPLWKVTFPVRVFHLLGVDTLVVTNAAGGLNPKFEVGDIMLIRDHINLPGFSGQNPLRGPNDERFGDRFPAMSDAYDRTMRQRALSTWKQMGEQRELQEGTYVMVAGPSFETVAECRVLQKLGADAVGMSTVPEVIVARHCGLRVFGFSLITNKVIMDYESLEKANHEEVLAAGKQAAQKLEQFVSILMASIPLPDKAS
method: Inhibition of human PNP in presence of 0.025 mM phosphate
setup conditions: read-out: Ki app
endpoint name: Ki (nM)

chemical structure: Nc1nc2c(CCCCC(F)(F)P(=O)(O)O)c[nH]c2c(=O)[nH]1
endpoint name: Ki
experimental value: 1
